This collection of values is drawn from patent US20230226040A1.

Entries annotated with measured Avg. Bliss Score
tested on: LU-99; assay: 5-day Cell Titer Glo combination matrix, Bliss score; format: cell-based; conditions: LU-99 (Lung, Mesenchymal); FGFR inhibitor in combination with Cmpd 3; 5 days
Lab note: record the figure alone, no unit after it.

Which value of Avg. Bliss Score has been reported for `CCN1CCN(c2ccc(Nc3cc(N(C)C(=O)Nc4c(Cl)c(OC)cc(OC)c4Cl)ncn3)cc2)CC1` in the records?
31.9

Which value of Avg. Bliss Score has been reported for `COc1cc(OC)cc(N(CCNC(C)C)c2ccc3ncc(-c4cnn(C)c4)nc3c2)c1` in the records?
34.7

Which value of Avg. Bliss Score has been reported for `C=CC(=O)N1CC[C@H](n2nc(C#Cc3cc(OC)cc(OC)c3)c3c(N)ncnc32)C1` in the records?
22

Which value of Avg. Bliss Score has been reported for `CCN1C(=O)N(c2c(F)c(OC)cc(OC)c2F)Cc2cnc3[nH]c(CN4CCOCC4)cc3c21` in the records?
44.8

====

Entries annotated with measured Avg. Bliss Score
system: SW-1573; test: 5-day Cell Titer Glo combination matrix, Bliss score; format: cell-based; conditions: SW-1573 (Lung, Mesenchymal); FGFR inhibitor in combination with Cmpd 3; 5 days

// known answers, use as guide
lineNotation	Avg. Bliss Score
CCN1C(=O)N(c2c(F)c(OC)cc(OC)c2F)Cc2cnc3[nH]c(CN4CCOCC4)cc3c21	19.3
COc1cc(OC)cc(N(CCNC(C)C)c2ccc3ncc(-c4cnn(C)c4)nc3c2)c1	7.9
CCN1CCN(c2ccc(Nc3cc(N(C)C(=O)Nc4c(Cl)c(OC)cc(OC)c4Cl)ncn3)cc2)CC1	7.5

Turning now to a further compound:
Which value of Avg. Bliss Score has been reported for `C=CC(=O)N1CC[C@H](n2nc(C#Cc3cc(OC)cc(OC)c3)c3c(N)ncnc32)C1` in the records?
6.6

====

tested on: H358; assay: 5-day Cell Titer Glo combination matrix, Bliss score; format: cell-based; conditions: H358 (Lung, Epithelial); FGFR inhibitor in combination with Cmpd 3; 5 days
quantityKind: Avg. Bliss Score
Lab note: record the figure alone, no unit after it.

lineNotation	subjectOfTest	Avg. Bliss Score
COc1cc(OC)cc(N(CCNC(C)C)c2ccc3ncc(-c4cnn(C)c4)nc3c2)c1	H358	4.4
CCN1C(=O)N(c2c(F)c(OC)cc(OC)c2F)Cc2cnc3[nH]c(CN4CCOCC4)cc3c21	H358	1.4
C=CC(=O)N1CC[C@H](n2nc(C#Cc3cc(OC)cc(OC)c3)c3c(N)ncnc32)C1	H358	3.3

Turning now to a further molecule:
Which measured Avg. Bliss Score belongs to `CCN1CCN(c2ccc(Nc3cc(N(C)C(=O)Nc4c(Cl)c(OC)cc(OC)c4Cl)ncn3)cc2)CC1` , tested on H358?
−0.8
